The reported numbers originate from patent US20120094995A1.

Overview of recorded log10 of IC50 for various compounds
Biological target: human GlyT1b (Homo sapiens, UniProt P48067)
Construct: expressed in transfected cells
Sequence (P48067 1-652 isoform P48067-3): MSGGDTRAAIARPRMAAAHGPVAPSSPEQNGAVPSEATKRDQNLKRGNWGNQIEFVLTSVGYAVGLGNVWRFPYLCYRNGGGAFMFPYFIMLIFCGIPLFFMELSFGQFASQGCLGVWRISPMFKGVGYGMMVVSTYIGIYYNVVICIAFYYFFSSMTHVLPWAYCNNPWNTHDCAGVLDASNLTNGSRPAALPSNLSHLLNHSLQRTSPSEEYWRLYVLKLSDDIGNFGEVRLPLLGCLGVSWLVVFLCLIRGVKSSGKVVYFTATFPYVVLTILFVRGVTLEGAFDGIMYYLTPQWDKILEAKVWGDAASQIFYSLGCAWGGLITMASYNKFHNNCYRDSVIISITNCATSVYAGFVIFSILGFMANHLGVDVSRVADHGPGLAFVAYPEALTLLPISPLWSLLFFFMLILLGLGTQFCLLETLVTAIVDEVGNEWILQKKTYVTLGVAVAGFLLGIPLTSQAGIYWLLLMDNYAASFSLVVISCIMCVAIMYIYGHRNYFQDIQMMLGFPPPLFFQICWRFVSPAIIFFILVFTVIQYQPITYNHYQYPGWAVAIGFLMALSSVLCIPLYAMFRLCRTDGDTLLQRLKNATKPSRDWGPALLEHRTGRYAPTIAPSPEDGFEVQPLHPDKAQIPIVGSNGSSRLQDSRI
Assay: [3H] Glycine Uptake Assay (SPA) in recombinant hGlyT1b-CHO cells
Format: cell-based
Conditions: Table 2, unit from table title
Field: value | Transform: log10 | Quantity: IC50 | Unit: µM

# compound, log10 of IC50
measured = [
    ("Cc1cccc(C)c1C(=O)NC(c1cccc(F)c1)C12CCC(CC1)N2 (single isomer, unassigned) [Example 76]", -0.53),
    ("Cc1ccc(C(NC(=O)c2c(C)cccc2C)C23CCC(CC2)N3C)cn1 (centres unmarked) [Example 68]", -0.89),
    ("Cc1cccc(C)c1C(=O)NC(c1ccc(N2CCOCC2)cc1)C12CCC(CC1)N2C (centres unmarked)", -1.14),
    ("Cc1cccc(C)c1C(=O)NC(c1ccccc1)C12CCC(CC1)N2CC(C)C (centres unmarked)", -1.89),
    ("CC(=O)Nc1cccc(C(NC(=O)c2c(C)cccc2C)C23CCC(CC2)N3C)c1 (centres unmarked)", -0.90),
    ("COCCN1C2CCC1([C@H](NC(=O)c1c(C)cccc1C)c1ccccc1)CC2", -1.66),
]

Read the next record carefully.
# input State log10 of IC50 (human GlyT1b (Homo sapiens, UniProt P48067)) of Cc1cccc(C)c1C(=O)NC(c1cccnc1)C12CCC(CC1)N2 (centres unmarked) .
# output -1.52
